- Protocol: Cytotoxicity against LPS/IFNgamma-stimulated mouse RAW264.7 cells assessed as cell viability at 6.5 uM after 48 hrs by MTT method (reference value: 100 +/- 1.8%)
- Assay type: cell-based
- Test Conditions: LPS/IFNgamma-stimulated RAW264.7 cells, read-out: Activity

[
  {
    "Test Smiles": "CO[C@H]1O[C@H](COc2ccc(-c3coc4cc(OC[C@H]5O[C@H](OC)[C@H](OC(C)=O)[C@@H](OC(C)=O)[C@@H]5OC(C)=O)cc(O)c4c3=O)cc2)[C@@H](OC(C)=O)[C@H](OC(C)=O)[C@H]1OC(C)=O",
    "viability at 48 h, 6.5 µM [%]": 103
  },
  {
    "Test Smiles": "O=c1c(-c2ccc(O)cc2)coc2cc(O)cc(O)c12",
    "viability at 48 h, 6.5 µM [%]": 128
  },
  {
    "Test Smiles": "CO[C@H]1O[C@H](COc2ccc(-c3coc4cc(OC[C@H]5O[C@H](OC)[C@H](O)[C@@H](O)[C@@H]5O)cc(O)c4c3=O)cc2)[C@@H](O)[C@H](O)[C@H]1O",
    "viability at 48 h, 6.5 µM [%]": 93.6
  }
]

---

- System: RAW264.7
- Protocol: Inhibition of nitric oxide production in LPS/IFNgamma-stimulated mouse RAW264.7 cells assessed as nitrites level at 26 uM by Griess method (reference value: 6.4 +/- 0.5 uM)
- Format: functional
Binarize Activity at 2 µM; below is fulfilled, at or above is not fulfilled.

[
  {
    "Compound": "CC1(C)O[C@H]2[C@@H](O1)[C@@H](COc1cc(O)c3c(=O)c(-c4ccc(O)cc4)coc3c1)O[C@@H]1OC(C)(C)O[C@@H]12",
    "Measurement Target": "RAW264.7",
    "Cat": "not fulfilled"
  },
  {
    "Compound": "O=c1c(-c2ccc(O)cc2)coc2cc(O)cc(O)c12 [GENISTEIN]",
    "Measurement Target": "RAW264.7",
    "Cat": "not fulfilled"
  },
  {
    "Compound": "CO[C@H]1O[C@H](COc2ccc(-c3coc4cc(OC[C@H]5O[C@H](OC)[C@H](O)[C@@H](O)[C@@H]5O)cc(O)c4c3=O)cc2)[C@@H](O)[C@H](O)[C@H]1O",
    "Measurement Target": "RAW264.7",
    "Cat": "fulfilled"
  },
  {
    "Compound": "CO[C@H]1O[C@H](COc2ccc(-c3coc4cc(OC[C@H]5O[C@H](OC)[C@H](OC(C)=O)[C@@H](OC(C)=O)[C@@H]5OC(C)=O)cc(O)c4c3=O)cc2)[C@@H](OC(C)=O)[C@H](OC(C)=O)[C@H]1OC(C)=O",
    "Measurement Target": "RAW264.7",
    "Cat": "not fulfilled"
  },
  {
    "Compound": "CO[C@H]1O[C@H](COc2cc(O)c3c(=O)c(-c4ccc(O)cc4)coc3c2)[C@@H](OC(C)=O)[C@H](OC(C)=O)[C@H]1OC(C)=O",
    "Measurement Target": "RAW264.7",
    "Cat": "not fulfilled"
  },
  {
    "Compound": "CC1(C)O[C@H]2[C@@H](O1)[C@@H](COc1ccc(-c3coc4cc(OC[C@H]5O[C@@H]6OC(C)(C)O[C@@H]6[C@H]6OC(C)(C)O[C@H]65)cc(O)c4c3=O)cc1)O[C@@H]1OC(C)(C)O[C@@H]12",
    "Measurement Target": "RAW264.7",
    "Cat": "not fulfilled"
  },
  {
    "Compound": "O=c1c(-c2ccc(O)cc2)coc2cc(OC[C@H]3O[C@H](O)[C@H](O)[C@@H](O)[C@H]3O)cc(O)c12",
    "Measurement Target": "RAW264.7",
    "Cat": "fulfilled"
  },
  {
    "Compound": "CO[C@H]1O[C@H](COc2cc(O)c3c(=O)c(-c4ccc(O)cc4)coc3c2)[C@@H](O)[C@H](O)[C@H]1O",
    "Measurement Target": "RAW264.7",
    "Cat": "fulfilled"
  }
]

---

- System: J774.A1
- Protocol: Inhibition of nitric oxide production in LPS/IFNgamma-stimulated mouse J774A1 cells assessed as nitrites level at 6.5 uM by Griess method (reference value: 16.5 +/- 1.4 uM)
- Assay type: functional
// values below are reported Activity
Value Kind: Activity (µM)

[
  {
    "Test Smiles": "CO[C@H]1O[C@H](COc2cc(O)c3c(=O)c(-c4ccc(O)cc4)coc3c2)[C@@H](O)[C@H](O)[C@H]1O",
    "Value": 7.2
  },
  {
    "Test Smiles": "O=c1c(-c2ccc(O)cc2)coc2cc(O)cc(O)c12",
    "Value": 13.4
  },
  {
    "Test Smiles": "CO[C@H]1O[C@H](COc2cc(O)c3c(=O)c(-c4ccc(O)cc4)coc3c2)[C@@H](OC(C)=O)[C@H](OC(C)=O)[C@H]1OC(C)=O",
    "Value": 12.7
  },
  {
    "Test Smiles": "CO[C@H]1O[C@H](COc2ccc(-c3coc4cc(OC[C@H]5O[C@H](OC)[C@H](O)[C@@H](O)[C@@H]5O)cc(O)c4c3=O)cc2)[C@@H](O)[C@H](O)[C@H]1O",
    "Value": 8.7
  },
  {
    "Test Smiles": "CO[C@H]1O[C@H](COc2ccc(-c3coc4cc(OC[C@H]5O[C@H](OC)[C@H](OC(C)=O)[C@@H](OC(C)=O)[C@@H]5OC(C)=O)cc(O)c4c3=O)cc2)[C@@H](OC(C)=O)[C@H](OC(C)=O)[C@H]1OC(C)=O",
    "Value": 11.5
  },
  {
    "Test Smiles": "CC1(C)O[C@H]2[C@@H](O1)[C@@H](COc1cc(O)c3c(=O)c(-c4ccc(O)cc4)coc3c1)O[C@@H]1OC(C)(C)O[C@@H]12",
    "Value": 17.7
  },
  {
    "Test Smiles": "CC1(C)O[C@H]2[C@@H](O1)[C@@H](COc1ccc(-c3coc4cc(OC[C@H]5O[C@@H]6OC(C)(C)O[C@@H]6[C@H]6OC(C)(C)O[C@H]65)cc(O)c4c3=O)cc1)O[C@@H]1OC(C)(C)O[C@@H]12",
    "Value": 9.8
  },
  {
    "Test Smiles": "O=c1c(-c2ccc(O)cc2)coc2cc(OC[C@H]3O[C@H](O)[C@H](O)[C@@H](O)[C@H]3O)cc(O)c12",
    "Value": 9.7
  }
]

---

- Protocol: Cytotoxicity against LPS/IFNgamma-stimulated mouse RAW264.7 cells assessed as cell viability at 13 uM after 48 hrs by MTT method (reference value: 100 +/- 1.8%)
- Type: cell-based
- Test Conditions: LPS/IFNgamma-stimulated RAW264.7 cells, read-out: Activity
// values below are reported viability at 48 h, 13 µM
Value Kind: viability at 48 h, 13 µM (%)

[
  {
    "Molecule": "O=c1c(-c2ccc(O)cc2)coc2cc(O)cc(O)c12 [GENISTEIN]",
    "Value Kind": "viability at 48 h, 13 µM",
    "Value": 103
  },
  {
    "Molecule": "CC1(C)O[C@H]2[C@@H](O1)[C@@H](COc1ccc(-c3coc4cc(OC[C@H]5O[C@@H]6OC(C)(C)O[C@@H]6[C@H]6OC(C)(C)O[C@H]65)cc(O)c4c3=O)cc1)O[C@@H]1OC(C)(C)O[C@@H]12",
    "Value Kind": "viability at 48 h, 13 µM",
    "Value": 89.4
  },
  {
    "Molecule": "CO[C@H]1O[C@H](COc2cc(O)c3c(=O)c(-c4ccc(O)cc4)coc3c2)[C@@H](O)[C@H](O)[C@H]1O",
    "Value Kind": "viability at 48 h, 13 µM",
    "Value": 88.1
  }
]
